Read-out record for Cholinesterase (Equus caballus, UniProt P81908): IC50

- compound: "CC(=O)CC(=O)NCCCNc1c2c(nc3ccccc13)CCCC2"
  readoutUnits: "µM"
  IC50: 0.06
- compound: "CC(=O)C(Cc1ccc(O)cc1)C(=O)NCCCNc1c2c(nc3ccccc13)CCCC2 (centres undefined)"
  readoutUnits: "µM"
  IC50: 0.83
- compound: "COc1cc(CC(C(C)=O)C(=O)NCCCNc2c3c(nc4ccccc24)CCCC3)ccc1O (centres undefined)"
  readoutUnits: "µM"
  IC50: 1.31
- compound: "CC(=O)C(Cc1ccc(O)cc1)C(=O)NCCCCNc1c2c(nc3ccccc13)CCCC2 (centres undefined)"
  readoutUnits: "µM"
  IC50: 0.39
- compound: "COc1cc(CC(C(C)=O)C(=O)NCCCCNc2c3c(nc4ccccc24)CCCC3)ccc1O (centres undefined)"
  readoutUnits: "µM"
  IC50: 3.38
- compound: "CC(=O)/C(=C\\c1ccc(O)cc1)C(=O)NCCCCNc1c2c(nc3ccccc13)CCCC2"
  readoutUnits: "µM"
  IC50: 4.77
- compound: "CC(=O)C(Cc1ccc(O)cc1)C(=O)NCCCCCCNc1c2c(nc3ccccc13)CCCC2 (centres undefined)"
  readoutUnits: "µM"
  IC50: 0.2
- compound: "COc1cc(/C=C(\\C(C)=O)C(=O)NCCCCCCNc2c3c(nc4ccccc24)CCCC3)ccc1O"
  readoutUnits: "µM"
  IC50: 1.5
- compound: "CC(=O)/C(=C\\c1ccc(O)cc1)C(=O)NCCCCCCNc1c2c(nc3ccccc13)CCCC2"
  readoutUnits: "µM"
  IC50: 2.24
